Data provenance is PubChem BioAssay (NCI).

Tested on: MDA-MB-468 breast
Test: NCI tumour cell line growth inhibition, 48 h; in the data active = GI50 below about 0.43 µM; inactive = the rest
Use one of these outcomes when replying: 1 (yes) (active), 0 (no) (inactive)

Use these answered entries as a reference point.
- COMPOUND: "CCOC(=O)c1ccc(NC(=O)CSC(CC(=O)c2sc(Nc3ccccn3)nc2C)c2ccccc2F)cc1 (centres undefined)"
  QUALITATIVE_LABEL: "0 (no)"
- COMPOUND: "COc1ccc2nc3c(cc2c1)C(=O)CC(c1ccccc1)C3 (centres undefined)"
  QUALITATIVE_LABEL: "0 (no)"
- COMPOUND: "COc1ccc(CNCCCN2C(=O)c3ccc4c5c(ccc(c35)C2=O)C(=O)N(CCCNCc2ccc(OC)c(OC)c2OC)C4=O)c(OC)c1OC"
  QUALITATIVE_LABEL: "1 (yes)"
- COMPOUND: "CCN(CC)CCn1c(=O)c2cc(OC)c(OC)cc2c2ccc3cc4c(cc3c21)OCO4"
  QUALITATIVE_LABEL: "0 (no)"
- COMPOUND: "C#Cc1cccc(NC(=O)c2cccc(NC(=O)CCl)c2)c1"
  QUALITATIVE_LABEL: "0 (no)"

Query compound follows.
**Query** // param item: C/C(CC(C)(C)N1CC1)=N\NC(=O)Nc1cccc2ccccc12 ; yields the recorded call
**Result** 0 (no)

====

Measured TGI, listed per entry for reference.
System: SW-620 colon
Assay: NCI tumour cell line growth inhibition, 48 h

Check out these entries, answers already filled in.
- MOLECULE: "COc1cccc(-c2nn(-c3ccccc3)cc2-c2ccnc(NCCCNC(=O)Nc3ccc(F)cc3)c2)c1"
  OBSERVED_VALUE: "> 37 µM"
- MOLECULE: "CN1CCN(Cc2ccc(C(=O)Nc3cccc(Nc4ccc5cc(O)ccc5n4)c3)cc2C(F)(F)F)CC1"
  OBSERVED_VALUE: "4.57 µM"
- MOLECULE: "CCOC(=O)c1ccc(NC(=O)CSC(CC(=O)c2sc(Nc3ccccn3)nc2C)c2ccccc2F)cc1 (centres undefined)"
  OBSERVED_VALUE: "> 100 µM"

Kindly review the next molecule as well.
**Query** Quick one: give measured TGI for Cn1cc(-c2cc3nc(-c4cn(C)c5ncccc45)cc(N)n3n2)c2ccccc21
**Result** > 100 µM

====

Measured GI50, listed per entry for reference.
System: OVCAR-3 ovarian
Test: NCI tumour cell line growth inhibition, 48 h

Check out these entries, answers already filled in.
- MOLECULE: "COc1cccc(-c2nn(-c3ccccc3)cc2-c2ccnc(NCCCNC(=O)Nc3ccc(F)cc3)c2)c1"
  GI50: "6.18 µM"
- MOLECULE: "CCN(CC)CCOc1ccc(Nc2ncc3cc(-c4ccc(O)c(C#N)c4)c(=O)n(C)c3n2)cc1"
  GI50: "> 100 µM"
- MOLECULE: "CN1CCN(Cc2ccc(C(=O)Nc3cccc(Nc4ccc5cc(O)ccc5n4)c3)cc2C(F)(F)F)CC1"
  GI50: "11.2 µM"

Kindly review the next molecule as well.
**Query** Quick one: give measured GI50 for CCOC(=O)c1ccc(NC(=O)CSC(CC(=O)c2sc(Nc3ccccn3)nc2C)c2ccccc2F)cc1 (centres undefined)
**Result** 31.7 µM

====

System: UACC-62 melanoma
Experiment: NCI tumour cell line growth inhibition, 48 h
READOUT_TYPE: TGI (µM)
Return type: number; implicit unit µM.

Check out these entries, answers already filled in.
- COMPOUND_SMILES: "CN1CCN(Cc2ccc(C(=O)Nc3cccc(Nc4ccc5cc(O)ccc5n4)c3)cc2C(F)(F)F)CC1"
  TGI, µM: 29.2
- COMPOUND_SMILES: "Cn1cc(-c2cc3nc(-c4cn(C)c5ncccc45)cc(N)n3n2)c2ccccc21"
  TGI, µM: 3.34

Kindly review the next compound as well.
**Query** Quick one: give measured TGI for COc1cccc(-c2nn(-c3ccccc3)cc2-c2ccnc(NCCCNC(=O)Nc3ccc(F)cc3)c2)c1
**Result** 24.2

====

Measured GI50, listed per entry for reference.
Test system: HCT-116 colon
Test: NCI tumour cell line growth inhibition, 48 h

Check out these entries, answers already filled in.
- COMPOUND: "COc1cccc(-c2nn(-c3ccccc3)cc2-c2ccnc(NCCCNC(=O)Nc3ccc(F)cc3)c2)c1"
  OBSERVED_VALUE: "5.7 µM"
- COMPOUND: "CN1CCN(Cc2ccc(C(=O)Nc3cccc(Nc4ccc5cc(O)ccc5n4)c3)cc2C(F)(F)F)CC1"
  OBSERVED_VALUE: "3.93 µM"
- COMPOUND: "CCN(CC)CCOc1ccc(Nc2ncc3cc(-c4ccc(O)c(C#N)c4)c(=O)n(C)c3n2)cc1"
  OBSERVED_VALUE: "30.7 µM"
- COMPOUND: "CCOC(=O)c1ccc(NC(=O)CSC(CC(=O)c2sc(Nc3ccccn3)nc2C)c2ccccc2F)cc1 (stereo not given)"
  OBSERVED_VALUE: "23 µM"

Kindly review the next compound as well.
**Query** Quick one: give measured GI50 for COc1ccc(/C=C/c2nc3ccccc3n3c(-c4cccc([N+](=O)[O-])c4)nnc23)cc1
**Result** 1.08 µM

====

Reported values: GI50 for NCI-H460 lung, one per item.

- COMPOUND: "COc1cccc(-c2nn(-c3ccccc3)cc2-c2ccnc(NCCCNC(=O)Nc3ccc(F)cc3)c2)c1"
  GI50: "6.54 µM"
- COMPOUND: "CCOC(=O)c1ccc(NC(=O)CSC(CC(=O)c2sc(Nc3ccccn3)nc2C)c2ccccc2F)cc1 (centres undefined)"
  GI50: "31.2 µM"

**Query** Give reported GI50 for CN1CCN(Cc2ccc(C(=O)Nc3cccc(Nc4ccc5cc(O)ccc5n4)c3)cc2C(F)(F)F)CC1 (NCI-H460 lung)
**Result** 3.84 µM

**Query** Give reported GI50 for Cn1cc(-c2cc3nc(-c4cn(C)c5ncccc45)cc(N)n3n2)c2ccccc21 (NCI-H460 lung)
**Result** 3.75 µM

====

Test system: MDA-MB-468 breast
Assay: NCI tumour cell line growth inhibition, 48 h
Measured GI50, listed per entry for reference.

Check out these entries, answers already filled in.
- COMPOUND_SMILES: "O=[N+]([O-])c1ccc(N=Nc2c(Cl)cc(O)cc2Cl)cc1"
  READOUT_TYPE: "GI50"
  OBSERVED_VALUE: "0.772 µM"
- COMPOUND_SMILES: "CCn1c(SCC(=O)Nc2cc(C(F)(F)F)ccc2Cl)nc2ccccc2c1=O"
  READOUT_TYPE: "GI50"
  OBSERVED_VALUE: "14 µM"
- COMPOUND_SMILES: "COc1ccc(/C=C/c2nc3ccccc3n3c(-c4cccc([N+](=O)[O-])c4)nnc23)cc1"
  READOUT_TYPE: "GI50"
  OBSERVED_VALUE: "1.13 µM"
- COMPOUND_SMILES: "S=C1SCN(Cc2ccccc2)CN1Cc1ccccc1"
  READOUT_TYPE: "GI50"
  OBSERVED_VALUE: "1.2 µM"
- COMPOUND_SMILES: "Cc1ccc(-c2nc(/C=N/Nc3cc(C)nc4ccc(Br)cc34)c(C)o2)cc1"
  READOUT_TYPE: "GI50"
  OBSERVED_VALUE: "1.95 µM"

Kindly review the next compound as well.
**Query** Quick one: give measured GI50 for CCOC(=O)c1c2c(n3ccc(NC(=O)CCN4CCCCC4)cc13)C(=O)c1ncccc1C2=O
**Result** 1.76 µM

====

Measured GI50, listed per entry for reference.
Tested on: 786-0 renal
Experiment: NCI tumour cell line growth inhibition, 48 h

Check out these entries, answers already filled in.
- COMPOUND: "COc1cccc(-c2nn(-c3ccccc3)cc2-c2ccnc(NCCCNC(=O)Nc3ccc(F)cc3)c2)c1"
  MEASUREMENT_TARGET: "786-0 renal"
  GI50: "9.34 µM"
- COMPOUND: "CCOC(=O)c1ccc(NC(=O)CSC(CC(=O)c2sc(Nc3ccccn3)nc2C)c2ccccc2F)cc1 (centres undefined)"
  MEASUREMENT_TARGET: "786-0 renal"
  GI50: "24.8 µM"
- COMPOUND: "CCN(CC)CCOc1ccc(Nc2ncc3cc(-c4ccc(O)c(C#N)c4)c(=O)n(C)c3n2)cc1"
  MEASUREMENT_TARGET: "786-0 renal"
  GI50: "15 µM"

Kindly review the next compound as well.
**Query** Quick one: give measured GI50 for Cn1cc(-c2cc3nc(-c4cn(C)c5ncccc45)cc(N)n3n2)c2ccccc21
**Result** 1.68 µM

====

Test system: MDA-MB-468 breast
Assay: NCI tumour cell line growth inhibition, 48 h
Binned TGI; ranges: class 0 (below 5 µM), class 1 (5 µM to below 9 µM), class 2 (9 µM or more)

Use these answered entries as a reference point.
- MOLECULE: "C#Cc1cccc(NC(=O)c2cccc(NC(=O)CCl)c2)c1"
  QUALITATIVE_LABEL: "class 2"
- MOLECULE: "CCCS(=O)(=O)Nc1cccc(Nc2ncnc3cc(NC(=O)CCl)ccc23)c1Cl"
  QUALITATIVE_LABEL: "class 1"
- MOLECULE: "COc1cccc(-c2nn(-c3ccccc3)cc2-c2ccnc(NCCCNC(=O)Nc3ccc(F)cc3)c2)c1"
  QUALITATIVE_LABEL: "class 2"
- MOLECULE: "CCN(CC)CCn1c(=O)c2cc(OC)c(OC)cc2c2ccc3cc4c(cc3c21)OCO4"
  QUALITATIVE_LABEL: "class 2"
- MOLECULE: "Cn1cc(-c2cc3nc(-c4cn(C)c5ncccc45)cc(N)n3n2)c2ccccc21"
  QUALITATIVE_LABEL: "class 1"
- MOLECULE: "C/C(CC(C)(C)N1CC1)=N\\NC(=O)Nc1cccc2ccccc12"
  QUALITATIVE_LABEL: "class 0"

**Query** Band of CC(=O)Nc1ccc(OC(C)=O)cc1 ?
**Result** class 0

**Query** Band of COc1ccc2nc3c(cc2c1)C(=O)CC(c1ccccc1)C3 (stereo not given) ?
**Result** class 2
